assay procedure: Inhibition of estrogen receptor alpha-mediated human MCF7 cell growth inhibition
reported endpoint: pIC50
pIC50 is defined as minus the log10 of a concentration measured in mol/L.

Query string: # input compound: COc1cc2c(cc1C=O)[C@H]1CC[C@]3(C)[C@@H](OC(C)=O)CC[C@H]3[C@@H]1CC2 ; wanted: its pIC50
Result string: 4.19

Query string: Need pIC50, item COc1cc(C(=O)CCc2cc3c(cc2OC)CC[C@@H]2[C@@H]3CC[C@]3(C)[C@@H](O)CC[C@@H]23)ccc1O
Result string: 4.19

Query string: Report pIC50 for COc1ccc2c(c1)CC[C@@H]1[C@@H]2CC[C@]2(C)[C@@H](OC(C)=O)CC[C@@H]12 please.
Result string: 4.19

Value source: BindingDB's records for doi:10.1016/j.ejmech.2013.06.048
